- target_system: PDGF-AB (A-chain/B-chain heterodimer) (Homo sapiens, UniProt P04085;P01127 P04085:87-211,P01127:82-190)
- Sequence (P01127 82-190, chain 2 of 2, other chains not shown): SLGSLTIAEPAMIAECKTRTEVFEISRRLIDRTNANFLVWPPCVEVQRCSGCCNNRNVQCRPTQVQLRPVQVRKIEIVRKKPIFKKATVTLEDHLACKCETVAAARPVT
- run_description: filter
- condition_set: tags: R&D Systems, expressed in E. coli, carrier-free
Classify as follows. Reported binding signal greater than or equal to 2 Kd ligand/Kd 36t: label 1. Reported binding signal below: label 0.

q: Reported binding signal at or above 2 Kd ligand/Kd 36t? CACAGGCTACGGCACGTAGAGCATCACCATGATCCTGTGT (ssDNA, 2'-OMe G19,A20,G21,C22; 3'-3' inverted T at nt 40) [1149]
a: label 1

q: Item: CAGGCUACGGCACGTAGAGCAUCACCATGATCCUG (ssDNA, 2'-F U6,U22,C23,C32,C33; 2'-OMe C8,G9,G10,C11,A12,G19,A24,C25,C26,A27,U34,G35; 3'-3' inverted T at nt 36) [1327]
a: label 0

q: Item: CACAGGCTACGGCACGTAGAGCATCACCATGATCCTGTGT (ssDNA, 2'-F C7; 3'-3' inverted T at nt 40) [1157]
a: label 0

q: Item: CAGGCUACGGCACGTAGAGCAUCACCATGATCCUG (ssDNA, 2'-OMe C5,U6,C8,G9,G10,C11,A12,G19,U22,C23,A24,C25,C26,A27,C32,C33,U34,G35; 3'-3' inverted T at nt 36) [1306]
a: label 1

q: Item: CAGGCUACGGCACGTAGAGCAUCACCATGATCCUG (ssDNA, 2'-OMe C5,U6,A7,C8,G9,G10,C11,A12,U22,C23,A24,C25,C26,A27,C32,C33,U34,G35; 3'-3' inverted T at nt 36) [1304]
a: label 1

q: Item: CAGGCUACGGCACGTAGAGCAUCACCATGATCCUG (ssDNA, 2'-F U6; 2'-OMe C8,G9,G10,C11,A12,U22,C23,A24,C25,C26,A27,C32,C33,U34,G35; 3'-3' inverted T at nt 36) [1303]
a: label 1

q: Item: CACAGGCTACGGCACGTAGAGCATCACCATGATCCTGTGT (ssDNA, 2'-F C22; 3'-3' inverted T at nt 40) [1160]
a: label 0

q: Item: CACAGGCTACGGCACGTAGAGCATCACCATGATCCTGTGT (ssDNA, 2'-OMe C10,G11,G12,C13,A14; 3'-3' inverted T at nt 40) [EV3]
a: label 0

q: Item: CACAGGCTACGGCACGUAGAGCAUCACCATGATCCTGTG (ssDNA, 2'-OMe U17,A23,U24; 3'-3' inverted T at nt 40) [1142]
a: label 1

q: Item: CACAGGCTACGGCACGUAGAGCATCACCATGATCCTGTG (ssDNA, 2'-OMe G12,C13,A14,C15,G16,U17; 3'-3' inverted T at nt 40) [EV2]
a: label 1

q: Item: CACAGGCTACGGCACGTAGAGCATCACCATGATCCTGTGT (ssDNA, 2'-OMe C1,A2,C3,A4; 3'-3' inverted T at nt 40) [EV4]
a: label 1

q: Item: CAGGCUACGGCACGTAGAGCAUCACCATGATCCUG (ssDNA, 2'-F U6,U22,C23,C32,C33; 2'-OMe A7,C8,G9,G10,C11,A12,G17,G19,A24,C25,C26,A27,U34,G35; 3'-3' inverted T at nt 36) [1374]
a: label 0

q: Item: CAGGCUACGGCACGTAGAGCAUCACCATGATCCUG (ssDNA, 2'-F U6,U22,C23,C32,C33; 2'-OMe C8,G9,G10,C11,A12,G19,C20,A24,C25,C26,A27,U34,G35; 3'-3' inverted T at nt 36) [1328]
a: label 1
